- TEST SYSTEM: Neutrophil collagenase (Homo sapiens, UniProt P22894)
- Sequence (P22894 whole entry): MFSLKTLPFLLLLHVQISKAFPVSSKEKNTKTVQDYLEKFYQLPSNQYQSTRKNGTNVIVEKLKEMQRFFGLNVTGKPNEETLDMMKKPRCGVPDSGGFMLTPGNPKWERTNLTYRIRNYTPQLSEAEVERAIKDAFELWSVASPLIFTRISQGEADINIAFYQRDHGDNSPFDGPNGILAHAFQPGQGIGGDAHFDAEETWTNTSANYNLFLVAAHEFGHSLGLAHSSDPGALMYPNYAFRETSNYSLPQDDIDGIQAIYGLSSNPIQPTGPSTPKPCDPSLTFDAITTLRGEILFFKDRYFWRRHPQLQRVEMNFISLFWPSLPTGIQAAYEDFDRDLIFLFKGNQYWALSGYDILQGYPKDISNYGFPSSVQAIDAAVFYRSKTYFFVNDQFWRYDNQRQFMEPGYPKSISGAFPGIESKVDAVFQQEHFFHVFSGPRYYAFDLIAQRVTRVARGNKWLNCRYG
- ASSAY: Inhibition of human recombinant MMP-8 after 45 mins by fluorogenic assay
READOUT LABEL: pIC50
// pIC50: -log10(molar conc.)

Completed entries (count: 4):
| COMPOUND STRUCTURE | TEST SYSTEM | READOUT LABEL | ASSAY VALUE |
| --- | --- | --- | --- |
| O=C1NC(=O)C(c2ccc(Oc3ccccc3)cc2)(N2CCCN(C(=O)CCCCCCCCCCCCC(=O)N3CCCN(C4(c5ccc(Oc6ccccc6)cc5)C(=O)NC(=O)NC4=O)CC3)CC2)C(=O)N1 | Neutrophil collagenase (Homo sapiens, UniProt P22894) | pIC50 | 6.66 |
| O=C1NC(=O)C(c2ccc(Oc3ccccc3)cc2)(N2CCCN(C(=O)CCCCCCC(=O)N3CCCN(C4(c5ccc(Oc6ccccc6)cc5)C(=O)NC(=O)NC4=O)CC3)CC2)C(=O)N1 | Neutrophil collagenase (Homo sapiens, UniProt P22894) | pIC50 | 7.06 |
| O=C1NC(=O)C(c2ccc(Oc3ccccc3)cc2)(N2CCCN(C(=O)CCCC(=O)N3CCCN(C4(c5ccc(Oc6ccccc6)cc5)C(=O)NC(=O)NC4=O)CC3)CC2)C(=O)N1 | Neutrophil collagenase (Homo sapiens, UniProt P22894) | pIC50 | 7.07 |
| O=C1NC(=O)C(c2ccc(Oc3ccccc3)cc2)(N2CCCN(C(=O)CCCCCCCC(=O)N3CCCN(C4(c5ccc(Oc6ccccc6)cc5)C(=O)NC(=O)NC4=O)CC3)CC2)C(=O)N1 | Neutrophil collagenase (Homo sapiens, UniProt P22894) | pIC50 | 7.01 |

Fill blank: measured pIC50 of the compound `O=C1NC(=O)C(c2ccc(Oc3ccccc3)cc2)(N2CCCN(C(=O)CCC(=O)N3CCCN(C4(c5ccc(Oc6ccccc6)cc5)C(=O)NC(=O)NC4=O)CC3)CC2)C(=O)N1` is ____.
7.36
